Hey, just so you know, these numbers are from patent US20100009956A1.

# Assayed Target: Cathepsin K (Homo sapiens, UniProt P43235)
# Test: Cathepsin K enzymatic assay (assay 1)
# Measurement Conditions: human recombinant enzyme, Z-FR-AFC substrate, pH 5.5
Where a name gives a salt, the structure may show the parent alone.

{"Molecule": "CN1CCN(Cc2ccc(-c3ccc(C(=O)NN(c4nc(C#N)ncc4Br)C4CCCC4)cn3)cc2)CC1 [Example 46, trifluoroacetate]", "IC50": "< 1.5 nM"}
{"Molecule": "C[C@@H]1CCC[C@H]1N(NC(=O)c1ccc(F)cc1)c1nc(C#N)ncc1Br (racemic)", "IC50": "< 17 nM"}
{"Molecule": "CN1CCN(C2CCN(Cc3ccc(C(=O)NN(c4nc(C#N)ncc4Cl)C4CCCCC4)cc3)CC2)CC1 [Example 41, dihydrochloride]", "IC50": "< 1.5 nM"}
{"Molecule": "CN1CCC(CN2CCN(Cc3ccc(C(=O)NN(c4nc(C#N)ncc4Br)C4CCCCC4)cc3)CC2)CC1 [Example 19, trifluoroacetate]", "IC50": "< 1.5 nM"}
{"Molecule": "CN1CCCC(CN2CCN(Cc3cccc(C(=O)NN(c4nc(C#N)ncc4Br)C4CCCC4)c3)CC2)C1 (stereo not shown) [Example 14, trifluoroacetate]", "IC50": "< 1.5 nM"}
{"Molecule": "N#Cc1ncc(Br)c(N(NC(=O)c2ccc(CN3CCC(N4CCOCC4)CC3)cc2)C2CCCC2)n1", "IC50": "< 1.5 nM"}
{"Molecule": "CN1CCN(C(=O)C2CCN(Cc3ccc(C(=O)NN(c4nc(C#N)ncc4Cl)C4CCOCC4)cc3)CC2)CC1 [Example 36, trifluoroacetate]", "IC50": "< 17 nM"}

====

# Assayed Target: UniProt:P43235
# Sequence (P43235 115-329): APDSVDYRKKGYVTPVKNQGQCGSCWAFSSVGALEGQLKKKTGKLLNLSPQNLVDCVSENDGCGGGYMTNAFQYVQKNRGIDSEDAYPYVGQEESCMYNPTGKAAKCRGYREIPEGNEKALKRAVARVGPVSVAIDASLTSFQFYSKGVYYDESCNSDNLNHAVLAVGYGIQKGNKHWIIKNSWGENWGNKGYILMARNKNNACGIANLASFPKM
# Test: Cathepsin K enzymatic assay (assay 1)
# Measurement Conditions: human recombinant enzyme, Z-FR-AFC substrate, pH 5.5
Structures can show the parent of a compound that is named as a salt.

{"Compound": "CN1CCN(C(=O)C2CCN(Cc3cccc(C(=O)NN(c4nc(C#N)ncc4Br)C4CCCCC4)c3)CC2)CC1 [Example 23, trifluoroacetate]", "Assayed Target": "UniProt:P43235", "IC50": "< 1.5 nM"}
{"Compound": "CN1CCN(Cc2ccc(C(=O)NN(c3nc(C#N)ncc3Cl)C3CCCC3)cc2)CC1 [Example 50, trifluoroacetate]", "Assayed Target": "UniProt:P43235", "IC50": "< 1.5 nM"}
{"Compound": "CCCN1CCN(c2ccc(C(=O)NN(c3nc(C#N)ncc3Br)C3CCCCC3)cc2)CC1 [Example 80, trifluoroacetate]", "Assayed Target": "UniProt:P43235", "IC50": "< 1.5 nM"}
{"Compound": "C[C@@H]1CCC[C@H]1N(NC(=O)c1ccc(CN2CCN(C)CC2)cc1)c1nc(C#N)ncc1Br", "Assayed Target": "UniProt:P43235", "IC50": "< 1.5 nM"}
{"Compound": "CN1CCN(C(=O)C2CCN(Cc3ccc(C(=O)NN(c4nc(C#N)ncc4Br)C4CCCCC4)cc3)CC2)CC1 [Example 22, trifluoroacetate]", "Assayed Target": "UniProt:P43235", "IC50": "< 1.5 nM"}
{"Compound": "CN1CCN(Cc2ccc(C(=O)NN(c3nc(C#N)ncc3Br)C3CCCC3)cc2)CC1 [Example 1, trifluoroacetate]", "Assayed Target": "UniProt:P43235", "IC50": "< 1.5 nM"}
{"Compound": "CC1CCC(N(NC(=O)c2ccc(CN3CCN(CC4CCN(C)CC4)CC3)cc2)c2nc(C#N)ncc2Br)C1 (mixture of isomers) [Example 5, trifluoroacetate]", "Assayed Target": "UniProt:P43235", "IC50": "< 1.5 nM"}
{"Compound": "CN1CCC(CN2CCN(Cc3cccc(C(=O)NN(c4nc(C#N)ncc4Br)C4CCCC4)c3)CC2)CC1 [Example 15, trifluoroacetate]", "Assayed Target": "UniProt:P43235", "IC50": "< 1.5 nM"}
{"Compound": "CN1CCN(Cc2ccc(-c3ccc(C(=O)NN(c4nc(C#N)ncc4Br)C4CCCCC4)cn3)cc2)CC1 [Example 44, trifluoroacetate]", "Assayed Target": "UniProt:P43235", "IC50": "< 1.5 nM"}
{"Compound": "CN1CCN(C2CCN(Cc3ccc(C(=O)NN(c4nc(C#N)ncc4Br)C4CCCC4)cc3)CC2)CC1 [Example 10, trifluoroacetate]", "Assayed Target": "UniProt:P43235", "IC50": "< 1.5 nM"}
{"Compound": "CN1CCCC(CN2CCN(Cc3ccc(C(=O)NN(c4nc(C#N)ncc4Br)C4CCOCC4)cc3)CC2)C1 (stereo not shown) [Example 31, trifluoroacetate]", "Assayed Target": "UniProt:P43235", "IC50": "< 17 nM"}
{"Compound": "N#Cc1ncc(Br)c(N(NC(=O)c2ccc(CN3CCC(O)CC3)cc2)C2CCCCC2)n1 [Example 21, trifluoroacetate]", "Assayed Target": "UniProt:P43235", "IC50": "< 1.5 nM"}
{"Compound": "CN1CCN(C2CCN(Cc3ccc(C(=O)NN(c4nc(C#N)ncc4Cl)C4CCCCC4)cc3)CC2)CC1 [Example 40]", "Assayed Target": "UniProt:P43235", "IC50": "< 1.5 nM"}
{"Compound": "CN1CCN(C(=O)C2CCN(Cc3ccc(C(=O)NN(c4nc(C#N)ncc4Br)C4CCOCC4)cc3)CC2)CC1 [Example 32, trifluoroacetate]", "Assayed Target": "UniProt:P43235", "IC50": "< 17 nM"}
{"Compound": "CN1CCN(C2CCN(Cc3cccc(C(=O)NN(c4nc(C#N)ncc4Br)C4CCCCC4)c3)CC2)CC1", "Assayed Target": "UniProt:P43235", "IC50": "< 1.5 nM"}
{"Compound": "CN1CCCC(CN2CCN(Cc3ccc(C(=O)NN(c4nc(C#N)ncc4Br)C4CCCC4)cc3)CC2)C1 (stereo not shown) [Example 8, trifluoroacetate]", "Assayed Target": "UniProt:P43235", "IC50": "< 1.5 nM"}
{"Compound": "CN1CCN(Cc2ccc(C(=O)NN(c3nc(C#N)ncc3Br)C3CCCC3)cc2)CC1 [Example 1B, hydrochloride]", "Assayed Target": "UniProt:P43235", "IC50": "< 1.5 nM"}
{"Compound": "CN1CCN(C2CCN(Cc3ccc(C(=O)NN(c4nc(C#N)ncc4Cl)C4CCOCC4)cc3)CC2)CC1 [Example 34, trifluoroacetate]", "Assayed Target": "UniProt:P43235", "IC50": "< 17 nM"}
{"Compound": "CN1CCC(CN2CCN(Cc3ccc(C(=O)NN(c4nc(C#N)ncc4Cl)C4CCOCC4)cc3)CC2)CC1 [Example 35, trifluoroacetate]", "Assayed Target": "UniProt:P43235", "IC50": "< 17 nM"}
{"Compound": "CC(=O)N1CCC(N(NC(=O)c2ccc(CN3CCC(C(=O)N4CCN(C)CC4)CC3)cc2)c2nc(C#N)ncc2Br)CC1 [Example 49, trifluoroacetate]", "Assayed Target": "UniProt:P43235", "IC50": "< 17 nM"}
{"Compound": "CN1CCN(C(=O)C2CCN(Cc3cccc(C(=O)NN(c4nc(C#N)ncc4Br)C4CCCC4)c3)CC2)CC1 [Example 12, trifluoroacetate]", "Assayed Target": "UniProt:P43235", "IC50": "< 1.5 nM"}
{"Compound": "N#Cc1ncc(Br)c(N(NC(=O)c2ccc(CN3CC(N4CCCC4)C3)cc2)C2CCOCC2)n1 [Example 33, trifluoroacetate]", "Assayed Target": "UniProt:P43235", "IC50": "< 17 nM"}
{"Compound": "CN1CCN(C2CCN(Cc3ccc(C(=O)NN(c4nc(C#N)ncc4Br)C4CCOCC4)cc3)CC2)CC1 [Example 29, trifluoroacetate]", "Assayed Target": "UniProt:P43235", "IC50": "< 17 nM"}
{"Compound": "CN1CCCC(CN2CCN(Cc3ccc(C(=O)NN(c4nc(C#N)ncc4Br)C4CCCCC4)cc3)CC2)C1 (stereo not shown) [Example 25, trifluoroacetate]", "Assayed Target": "UniProt:P43235", "IC50": "< 1.5 nM"}
{"Compound": "CN1CCN(Cc2cccc(-c3cncc(C(=O)NN(c4nc(C#N)ncc4Br)C4CCCCC4)c3)c2)CC1 [Example 47, trifluoroacetate]", "Assayed Target": "UniProt:P43235", "IC50": "< 1.5 nM"}
